src = patent EP4269437A1

target: T1, PD-1.His (UniProt Q15116 25-170, limits assumed); assay: SPR, antibody captured on protein A, PD-1.His in flow
T1 construct: not shown: His tag
T1 sequence (Q15116 25-170 limits assumed): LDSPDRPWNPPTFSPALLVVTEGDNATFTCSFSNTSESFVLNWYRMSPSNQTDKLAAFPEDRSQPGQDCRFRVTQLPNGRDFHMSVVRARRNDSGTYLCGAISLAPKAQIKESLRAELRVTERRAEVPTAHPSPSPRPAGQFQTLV
koff values by entry
Output spec: scalar in s⁻¹, unitless text.

Solved entries:
{"binder": "NB182-z3 (Fc fusion, format not restated; not shown: IgG4 constant region of vector pCDNA3.4-IgG4) heavy: EVQLVESGGGLVQPGGSLRLSCSASGDTSFISAAGWYRQAPGKERELVSAITNTGITYYPDSVKGRFTISRDNSKNTLYLQMNNLRAEDTAVYYCNAGAPPPGGLGYDESDYWGQGTQVTVSS", "quantity-unit": "s⁻¹", "koff": "7.11e-05"}
{"binder": "NB182 (Fc fusion, not shown: IgG4 constant region of vector pCDNA3.4-IgG4) heavy: QVQLVESGGGLVQAGGSLRLSCAASGDTSFISAAGWYRQAPGKERELVAAITNTGITYYPDSVKGRFTISRDNAKNTVYLQMNNLKPEDTAVYYCNAGAPPPGGLGYDESDYWGQGTQVTVSS", "quantity-unit": "s⁻¹", "koff": "6.4e-05"}
{"binder": "NB194-z4 (Fc fusion, format not restated; not shown: IgG4 constant region of vector pCDNA3.4-IgG4) heavy: EVQLVESGGGLVQPGGSLRLSCAASGRPFSIYDMGWFRQAPDKERESVAVINLARGNTYYADSVKGRFTISRDNAKNTVYLQMNSLRAEDTAVYSCGVDRRQYGLGIPPLADHWGQGTQVTVSS", "quantity-unit": "s⁻¹", "koff": "7.79e-05"}
{"binder": "NB194-z1 (Fc fusion, format not restated; not shown: IgG4 constant region of vector pCDNA3.4-IgG4) heavy: EVQLVESGGGLVQPGGSLRLSCAASGRPFSIYDMGWFRQAPDKERESVAVISLSRGNTYYADSVKGRFTISRDNAKNTVYLQMNSLRAEDTAVYSCGVDRRQYGLGIPPLADHWGQGTQVTVSS", "quantity-unit": "s⁻¹", "koff": 0.000107}
{"binder": "NB194-z5 (Fc fusion, format not restated; not shown: IgG4 constant region of vector pCDNA3.4-IgG4) heavy: EVQLVESGGGLVQPGGSLRLSCAASGRPFSIYDMGWFRQAPDKERESVAVINLSRGNTYYADSVKGRFTISRDNAKNTVYLQMNSLRAEDTAVYSCGVDRRQYGLGIPPLADHWGQGTQVTVSS", "quantity-unit": "s⁻¹", "koff": "7.92e-05"}

Data request, read-out koff, for NB182-z1 (Fc fusion, format not restated; not shown: IgG4 constant region of vector pCDNA3.4-IgG4) heavy: EVQLVESGGGLVQPGGSLRLSCSASGDTSFISAAGWYRQAPGKERELVSAITNTGITYYPDSVKGRFTISRDNSKNTVYLQMNSLRAEDTAVYYCNAGAPPPGGLGYDESDYWGQGTQVTVSS 7.61e-05

Data request, read-out koff, for NB182-z4 (Fc fusion, format not restated; not shown: IgG4 constant region of vector pCDNA3.4-IgG4) heavy: EVQLVESGGGLVQPGGSLRLSCSASGDTSFISAAGWYRQAPGKERELVSAITNTGITYYPDSVKGRFTISRDNSKNTVYLQMNNLRAEDTAVYYCNAGAPPPGGLGYDESDYWGQGTQVTVSS 9.73e-05

Data request, read-out koff, for NB194-z2 (Fc fusion, format not restated; not shown: IgG4 constant region of vector pCDNA3.4-IgG4) heavy: EVQLVESGGGLVQPGGSLRLSCAASGRPFSIYDMGWFRQAPDKERESVAVISLSRGNTYYADSVKGRFTISRDSAKNTVYLQMNSLRAEDTAVYSCGVDRRQYGLGIPPLADHWGQGTQVTVSS 9.88e-05
